Tested on: CYP26 (atRA metabolite formation in fetal liver S9)
assay comment: Inhibition of atRA metabolite formation in human fetal liver S9 fractions by CYP selective inhibitors
Assay type: in vitro ADME
details: human, human fetal liver S9 fractions, probe atRA (all-trans retinoic acid), 500 nM
experimental endpoint: inhibition at 200 nM

>>> result("CCC(CC)C(c1ccc(Nc2nc3ccccc3s2)cc1)n1cncn1 (stereo not shown) [talarozole]")
"30 to 40%"

----------
Test system: CYP3A7 (atRA metabolite formation in fetal liver S9)
assay comment: Inhibition of atRA metabolite formation in human fetal liver S9 fractions by CYP selective inhibitors
Format: in vitro ADME
details: human, human fetal liver S9 fractions, probe atRA (all-trans retinoic acid), 500 nM
experimental endpoint: inhibition at 200 µM

>>> result("OC(Cn1cncn1)(Cn1cncn1)c1ccc(F)cc1F")
"30 to 60%"
